test system: LPS stimulated release of TNF from Human whole blood; assay: LPS stimulation of whole blood, TNF-α release (ELISA); type: cell-based; details: LPS 1 μg/ml, 18 hours, 37° C., n=12
pIC50: −log10 of the molar value.

{"columns": ["SMILES STRUCTURE", "pIC50"],
 "data": [
  ["Cc1cccc(Nc2c(C(=O)N3CCC[C@@H]3CO)sc3c2ccc(=O)n3-c2c(F)cccc2F)n1", "6.70 to 7.52"]
]}
